Below, each entry is listed alongside its reported Activity.
Assay: Absorption property of the compound in pH 7.5 tris HCl buffer assessed as maximum absorption wavelength
Type: physicochemical
Respond numerically; units are nm and should not be typed.

[
  {
    "smiles code": "COc1ccc(/N=N/c2ccc(F)c(C(=O)Nc3cnc4[nH]nc(OC)c4c3)c2F)cc1",
    "Activity / nm": 341
  },
  {
    "smiles code": "COc1ccc(/N=N/c2cccc(C(=O)Nc3cnc4[nH]nc(OC)c4c3)c2)cc1",
    "Activity / nm": 345
  },
  {
    "smiles code": "COc1n[nH]c2ncc(NC(=O)c3c(F)ccc(/N=N/c4ccccc4F)c3F)cc12",
    "Activity / nm": 331
  },
  {
    "smiles code": "COc1ccccc1/N=N/c1ccc(F)c(C(=O)Nc2cnc3[nH]nc(OC)c3c2)c1F",
    "Activity / nm": 327
  },
  {
    "smiles code": "COc1n[nH]c2ncc(NC(=O)c3c(F)ccc(/N=N/c4ccc(C)cc4)c3F)cc12",
    "Activity / nm": 338
  }
]

Look at this molecule and give its reported Activity. COc1n[nH]c2ncc(NC(=O)c3c(F)ccc(/N=N/c4ccccc4C)c3F)cc12 334

Look at this molecule and give its reported Activity. COc1n[nH]c2ncc(NC(=O)c3c(F)ccc(/N=N/c4ccccc4)c3F)cc12 328

Look at this molecule and give its reported Activity. COc1n[nH]c2ncc(NC(=O)c3c(F)ccc(/N=N/c4ccc(F)cc4)c3F)cc12 338

###

Target: Serine/threonine-protein kinase B-raf (Homo sapiens, UniProt P15056, V600E)
Sequence (P15056 2-766 V600E limits assumed): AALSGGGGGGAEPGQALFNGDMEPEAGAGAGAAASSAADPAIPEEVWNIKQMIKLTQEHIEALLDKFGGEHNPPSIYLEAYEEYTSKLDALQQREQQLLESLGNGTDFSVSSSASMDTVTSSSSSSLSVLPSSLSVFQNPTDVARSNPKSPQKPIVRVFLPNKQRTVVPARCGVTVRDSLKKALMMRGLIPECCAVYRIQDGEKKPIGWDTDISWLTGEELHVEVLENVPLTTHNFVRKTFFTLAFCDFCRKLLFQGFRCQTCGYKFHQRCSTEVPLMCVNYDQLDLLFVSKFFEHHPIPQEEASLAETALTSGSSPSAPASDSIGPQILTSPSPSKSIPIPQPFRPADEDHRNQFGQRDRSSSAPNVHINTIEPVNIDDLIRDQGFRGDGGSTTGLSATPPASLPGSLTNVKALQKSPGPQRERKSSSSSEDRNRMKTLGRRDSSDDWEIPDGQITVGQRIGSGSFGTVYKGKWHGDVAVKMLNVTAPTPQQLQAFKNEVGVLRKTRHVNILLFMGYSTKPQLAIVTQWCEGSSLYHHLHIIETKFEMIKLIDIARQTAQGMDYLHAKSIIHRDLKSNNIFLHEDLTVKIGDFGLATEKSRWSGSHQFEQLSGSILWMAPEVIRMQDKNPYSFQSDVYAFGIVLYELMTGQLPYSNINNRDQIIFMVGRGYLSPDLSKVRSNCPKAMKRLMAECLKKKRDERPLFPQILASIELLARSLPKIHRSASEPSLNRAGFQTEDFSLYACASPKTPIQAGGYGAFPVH
Experiment: Inhibition of human recombinant N-terminal GST/His6-tagged BRAF V600E mutant (Q417 to H766 residues) expressed in Sf9 insect cells using MEK1 as substrate measured after 1 hr using light irradiated compound at 365 nm for 45 mins by Western blot analysis
measurement type: IC50 (nM)
Respond numerically; units are nM and should not be typed.

Sample records with IC50:
[
  {
    "smiles code": "COc1n[nH]c2ncc(NC(=O)c3c(F)ccc(/N=N\\c4ccc(C)cc4)c3F)cc12",
    "unit text": "nM",
    "IC50": 9
  },
  {
    "smiles code": "COc1ccc(/N=N\\c2cccc(C(=O)Nc3cnc4[nH]nc(OC)c4c3)c2)cc1",
    "unit text": "nM",
    "IC50": 450
  }
]

As a next step, examine the compound that follows.
Look at this compound and give its reported IC50. COc1ccccc1/N=N\c1ccc(F)c(C(=O)Nc2cnc3[nH]nc(OC)c3c2)c1F 360

Reference source for all entries: ChEMBL document CHEMBL4364290
